For each record, write down the corresponding IC50.
Target: MurG (Escherichia coli)
Sequence (P17443 whole entry): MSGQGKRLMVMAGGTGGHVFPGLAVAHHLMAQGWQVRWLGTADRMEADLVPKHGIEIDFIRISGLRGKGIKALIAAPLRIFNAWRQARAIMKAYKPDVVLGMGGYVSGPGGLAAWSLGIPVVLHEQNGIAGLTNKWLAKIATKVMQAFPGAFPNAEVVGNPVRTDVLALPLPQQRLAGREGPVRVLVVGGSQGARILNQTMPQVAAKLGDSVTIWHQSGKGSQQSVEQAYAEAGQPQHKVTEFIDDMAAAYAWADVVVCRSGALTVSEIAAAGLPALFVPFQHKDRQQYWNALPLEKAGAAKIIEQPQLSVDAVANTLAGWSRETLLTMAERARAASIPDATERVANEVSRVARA
Test: radiometric kinetic assay (incorporation of 14C-GlcNAc into Lipid II), secondary screen and IC50
Format: biochemical, E. coli
Express your answer in µM, writing the number without its unit.

What IC50 value was documented for this compound, O=C1/C(=C2/C(=O)N(Cc3ccccc3)c3ccc(Br)cc32)SC(=S)N1CCS(=O)(=O)O [Compound 3] ?
3.5

What IC50 value was documented for this compound, O=C1NC(=O)N(c2ccc(Cl)cc2)C(=O)/C1=C/c1ccc(Br)o1 [Compound 4] ?
6.4

What IC50 value was documented for this compound, CC1CCN(CN2C(=O)/C(=C\c3ccc(C(C)(C)C)cc3)SC2=S)CC1 [Compound 1] ?
1.4

What IC50 value was documented for this compound, O=C(O)c1ccc(N2C(=O)/C(=C/c3ccc(-c4ccc(Br)cc4)o3)C=C2c2ccccc2)cc1 [Compound 7] ?
5.4

What IC50 value was documented for this compound, Cc1cc(/C=C2\C(=O)NC(=S)N(c3cccc(Cl)c3)C2=O)c(C)n1-c1cc(C(=O)O)cc(C(=O)O)c1 [Compound 5] ?
1.4

What IC50 value was documented for this compound, O=C(O)CN1C(=O)/C(=C\c2cc(Cl)cc(Br)c2O)SC1=S [Compound 2] ?
3.4

What IC50 value was documented for this compound, CC(C)(C)c1ccc(OCCOc2cccc(C=C3C(=O)NC(=S)NC3=O)c2)cc1 [Compound 6] ?
4
